Record set: Ki | the protein given by its sequence | literature, multiple sources.
Protein target, amino acids: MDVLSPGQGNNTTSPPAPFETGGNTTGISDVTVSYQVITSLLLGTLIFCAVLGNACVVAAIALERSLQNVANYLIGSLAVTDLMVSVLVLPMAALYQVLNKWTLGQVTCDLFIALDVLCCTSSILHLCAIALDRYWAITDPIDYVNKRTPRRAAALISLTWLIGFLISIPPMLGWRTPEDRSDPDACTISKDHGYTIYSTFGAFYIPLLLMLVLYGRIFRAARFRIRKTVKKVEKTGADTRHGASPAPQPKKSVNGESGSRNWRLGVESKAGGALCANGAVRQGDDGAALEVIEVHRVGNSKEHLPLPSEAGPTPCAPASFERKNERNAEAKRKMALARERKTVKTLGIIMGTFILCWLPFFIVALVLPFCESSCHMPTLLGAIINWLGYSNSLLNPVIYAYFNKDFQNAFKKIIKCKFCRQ
For each record, check the reported Ki: if it is below 9 nM write met, else write not met.

Answered cases to consult:
compound: N#Cc1ccc2[nH]cc(CCCCN(CC3CC3)C3COc4ccc5c(c4C3)C(=O)NC5)c2c1 (racemic)
assigned-category: met
--
compound: Cc1ccc(Sc2ccc(F)cc2)c(N2CCNCC2)c1
assigned-category: not met

Request: Is the reported Ki for CC(=O)Nc1cc2c(C3CCN(C)CC3)c[nH]c2cn1 strictly below 9 nM?
Result: met

Request: Is the reported Ki for O=C(NC/C=C/CN1CCN(c2cccc(Cl)c2Cl)CC1)c1ccc(-c2ccccn2)cc1 strictly below 9 nM?
Result: not met

Request: Is the reported Ki for N#Cc1ccccc1N1CCN(CC(O)CN2C(=O)NC(c3ccccc3)(c3ccccc3)C2=O)CC1 (racemic) strictly below 9 nM?
Result: not met

Request: Is the reported Ki for O=c1[nH]c2cccc(N3CCN(Cc4cccc(-c5ccccc5)c4)CC3)c2o1 strictly below 9 nM?
Result: not met

* * *

Record set: pKi | UniProtKB P08908 | literature, multiple sources.
pKi: −log10 of the molar value.
Tag: Fulfilled if measured pKi is not below 8, Not fulfilled if it is.

Answered cases to consult:
molecule: CN1CCN(c2ccc3[nH]nc(S(=O)(=O)c4ccccc4)c3c2)CC1
assigned-category: Not fulfilled
--
molecule: O=C1CCc2ccc(OCCCCN3CCN(c4cc(F)cc5ccccc45)CC3)nc2N1
assigned-category: Fulfilled
--
molecule: Oc1ccc(-c2ccc(CNCCc3c[nH]c4ccc(Cl)cc34)o2)cc1
assigned-category: Not fulfilled
--
molecule: COc1cccc2sc([C@@H]3CCN(C[C@H](O)COc4cccc5oc(C)cc45)[C@@H](C)C3)cc12
assigned-category: Fulfilled
--
molecule: O=c1[nH]c(CCCCCN2CCN(c3ccccc3)CC2)nc2ccccc12
assigned-category: Not fulfilled
--
molecule: N#Cc1ccc(CNC(=O)CCOCCN2CCN(c3cccnc3-c3ccc(F)cc3)CC2)cc1
assigned-category: Not fulfilled
--
molecule: CN[C@@H]1CCc2[nH]c3ccc(C(N)=O)cc3c2C1
assigned-category: Not fulfilled
--
molecule: O=C([C@@H]1CCCN1C(=O)CCCCN1CCN(c2ccccc2-c2ccccc2)CC1)N1CCCCC1
assigned-category: Not fulfilled

Request: Decide: pKi of CC(Oc1cc(C(F)(F)F)ccc1C(F)(F)F)c1nc(N)nc(N2CCN(C)CC2)n1 (centres undefined) >= 8?
Result: Not fulfilled

Request: Decide: pKi of Fc1ccc(Oc2cc(F)c(F)cc2C2CCNCC2)cc1 >= 8?
Result: Not fulfilled

Request: Decide: pKi of COc1c(O)ccc2c1CN1CCc3cc4c(cc3[C@@H]1C2)OCO4 >= 8?
Result: Not fulfilled

Request: Decide: pKi of Fc1cccc(Cl)c1Oc1ncccc1OC1CNC1 >= 8?
Result: Not fulfilled

Request: Decide: pKi of O=C1CCc2ccc(OCCCCN3CCN(c4cccc5c4CCCO5)CC3)nc2N1 >= 8?
Result: Fulfilled

Request: Decide: pKi of COc1ccc2c(c1)OC(CNCCc1c[nH]c3ccc(F)cc13)CN2 (centres undefined) >= 8?
Result: Not fulfilled

Request: Decide: pKi of Cc1cc2c(OC[C@@H](O)CN3CC[C@@H](c4cccc5ccsc45)C[C@@H]3C)cccc2[nH]1 >= 8?
Result: Fulfilled

Request: Decide: pKi of O=C1NCc2ccc3c(c21)CC(NCCCCc1c[nH]c2ccc(F)cc12)CO3 (racemic) >= 8?
Result: Not fulfilled

Request: Decide: pKi of Cn1c(=O)cnn(CCCN2CCN(c3ccccc3)CC2)c1=O >= 8?
Result: Not fulfilled

Request: Decide: pKi of CC(C)(C)c1ccccc1OCCN1CCC(NS(=O)(=O)c2cccc(Cl)c2)CC1 >= 8?
Result: Not fulfilled

Request: Decide: pKi of CC(=O)Nc1ccc(OCCCN2CCC(c3noc4cc(F)ccc34)CC2)cc1F >= 8?
Result: Not fulfilled

Request: Decide: pKi of Fc1ccccc1Oc1cccc(F)c1OC1CCNCC1 >= 8?
Result: Not fulfilled

Request: Decide: pKi of O=C(NC[C@H]1C[C@H]1CN1CCN(c2cccc(Cl)c2Cl)CC1)c1ccc(-c2ccccn2)cc1 (relative stereo) >= 8?
Result: Not fulfilled

Request: Decide: pKi of c1ccc(-c2cccc(CN3CCN(c4cccc5c4OCCN5)CC3)c2)cc1 >= 8?
Result: Not fulfilled

Request: Decide: pKi of CC(C)c1ccccc1OCCN1CC(NS(=O)(=O)c2cccc(F)c2)C1 >= 8?
Result: Not fulfilled

* * *

Record set: pKi | UniProt P08908 | literature, multiple sources.
- assayed-target: UniProt P08908
- Sequence (P08908 whole entry): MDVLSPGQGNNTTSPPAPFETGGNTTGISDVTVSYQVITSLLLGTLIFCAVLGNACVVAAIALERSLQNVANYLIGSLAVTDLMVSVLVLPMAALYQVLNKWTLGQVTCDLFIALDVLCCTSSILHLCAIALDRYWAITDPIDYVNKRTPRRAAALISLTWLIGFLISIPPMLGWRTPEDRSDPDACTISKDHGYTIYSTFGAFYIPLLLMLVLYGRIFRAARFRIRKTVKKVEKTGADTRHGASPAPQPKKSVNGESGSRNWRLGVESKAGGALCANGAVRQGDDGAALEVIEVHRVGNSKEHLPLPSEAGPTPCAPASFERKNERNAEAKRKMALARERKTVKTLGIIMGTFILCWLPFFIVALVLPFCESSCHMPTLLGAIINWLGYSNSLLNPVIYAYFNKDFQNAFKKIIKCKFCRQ
Interpret pKi as the negative base-10 log of the concentration measured in mol/L.

Worked examples follow.
smiles-input: CCOc1ccccc1N1CCN(CCCCn2ncc(=O)n(C)c2=O)CC1
pKi: 9.18
//
smiles-input: COc1ccccc1-c1cc2c(=O)n(CCN3CCN(c4ccccc4Cl)CC3)c(=O)[nH]c2[nH]1
pKi: 5.99

Request: Notebook: pull reported pKi for UniProt P08908, entry CC(C)c1nc2c(N3CCNCC3)ccnc2n1Cc1cccc(F)c1
Result: 5.23

* * *

- assayed-target: 5-hydroxytryptamine receptor 1A (Homo sapiens, UniProt P08908)
- Sequence (P08908 whole entry): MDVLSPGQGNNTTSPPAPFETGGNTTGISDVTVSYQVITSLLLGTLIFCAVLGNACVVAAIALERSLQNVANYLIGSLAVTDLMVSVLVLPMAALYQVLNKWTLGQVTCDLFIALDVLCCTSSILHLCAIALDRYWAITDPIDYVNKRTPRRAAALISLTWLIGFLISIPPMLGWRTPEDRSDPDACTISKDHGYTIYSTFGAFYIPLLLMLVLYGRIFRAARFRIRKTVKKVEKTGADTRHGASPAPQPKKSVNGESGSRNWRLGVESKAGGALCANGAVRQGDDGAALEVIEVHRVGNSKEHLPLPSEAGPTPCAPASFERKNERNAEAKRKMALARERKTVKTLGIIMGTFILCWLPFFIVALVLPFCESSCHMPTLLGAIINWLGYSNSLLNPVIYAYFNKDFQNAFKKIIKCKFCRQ
Record set: pKi | 5-hydroxytryptamine receptor 1A (Homo sapiens, UniProt P08908) | literature, multiple sources.
Interpret pKi as the negative base-10 log of the concentration measured in mol/L.

Worked examples follow.
molecule: O=C(CCN1CCN(c2ccccc2O)CC1)c1csc2ccccc12
assay-value: 6.96

molecule: COc1ccc(-c2ccccc2N2CCN(CCCCCC(=O)NCc3ccc(C#N)cc3)CC2)cc1
assay-value: 6.90

molecule: COc1ccccc1N1CCN(CCc2cccc(OCCCCCOc3cccc(CCN4CCN(c5ccccc5OC)CC4)c3)c2)CC1
assay-value: 8.77

Request: If you can, please state the reported pKi value of COc1ccccc1N1CCN(CC(F)CCNC(=O)c2cc3ccccc3[nH]2)CC1 (stereo not drawn) .
Result: 7.00

Request: If you can, please state the reported pKi value of O=S(=O)(NC1CCN(CCOc2ccccc2-c2ccccc2)CC1)c1ccccc1 .
Result: 6.55

Request: If you can, please state the reported pKi value of OC(CNCCC(Oc1ccc(C(F)(F)F)cc1)c1ccccc1)COc1cccc2[nH]ccc12 (stereo not drawn) .
Result: 7.73

Request: If you can, please state the reported pKi value of CC(C)c1ccccc1OCCN1CCC(NS(=O)(=O)c2cccc(Cl)c2)C1 (stereo not drawn) .
Result: 7.51

Request: If you can, please state the reported pKi value of COc1cccc2[nH]cc(-c3ccnc(N)n3)c12 .
Result: 5.87
